# target.under.test: full-length human GLP-1R with an N-terminal FLAG tag, overexpressed on HEK-293T cells (human, UniProt P43220 24-463)
# method.description: cell-based or functional assay
Starred links: 1 amine or outer side, 2 acyl side, 3 side chain; linkers in the order of their positions; H or OH if unused. Non-standard residues stand in square brackets, D forms with d. Groups on a side chain read outwards from the residue. *: point of attachment. C15 diacid = O=C(O)CCCCCCCCCCCCCC(=O)*; γGlu = O=C(O)[C@H](CCC(=O)[*:2])N[*:1]; AEEA = NCCOCCOCC(=O)O; Aib = CC(C)(N)C(=O)O
endpoint: Human GLP1R cAMP HEK293T EC50

Solved cases below.
- binder: "Me-Y[Aib]EGTFISDYSIAK([Gly-Gly-Gly-Gly-γGlu-C15 diacid])DR[Aib]AQ[Aib]DFVNWLLAQKG-OH [Compound 180]"
  Human GLP1R cAMP HEK293T EC50: "> 1000 nM"
- binder: "Me-Y[Aib]EGTFISDYSI[Aib]LDR[Aib]AQ[Aib]K([AEEA-AEEA-γGlu-γGlu-C15 diacid])FVNWLLAQKG-OH [Compound 175]"
  Human GLP1R cAMP HEK293T EC50: "44.7 nM"
- binder: "Me-Y[Aib]EGTFISDYSIALDR[Aib]AQ[Aib]K([2OEG-γGlu-C15 diacid])FVNWLLAQKG-OH [Compound 213]"
  Human GLP1R cAMP HEK293T EC50: "17 nM"
- binder: "YXEGTFISDYSIALDRXAQXNFVNWLLAQSPSSGAPPPS (N-terminal Me (Me-Tyr1); Aib at 2, 20; Km = Lys(R) at 17, linker printed GS (read as G5 = GGGGG), lipid C15DA (C15 diacid); C-terminal NH2) [Compound 164]"
  Human GLP1R cAMP HEK293T EC50: "9.77 nM"

[in] Returns the measured Human GLP1R cAMP HEK293T EC50 for the input binder. Input: Me-Y[Aib]EGTFISDYSIALDR[Aib]AQ[Aib]K([2OEG-γGlu-γGlu-C15 diacid])FVNWLLAQK-NH2 [Compound 210]
[out] 129 nM
